Listing of entries alongside the reported growth.
# System: MOLT-4 leukemia
# EXPERIMENT NOTES: NCI-60 one-dose screen, 48 h (100 = growth as untreated, 0 = no growth, -100 = all killed)
# SETUP CONDITIONS: 10 µM unless noted
This is part of a sample that, as a whole, favours compounds with a hit. Of some 83,000 tested, about 20% had one in any assay.
VALUE TYPE: growth (%)

query_smiles=Clc1nc(Cl)c2ncn(-c3ccccc3)c2n1 value_type=growth units_label=% value=44.2
query_smiles=COc1ccc(-c2nn(-c3ccccc3)cc2/C=C2\SC(=S)N(CCc3ccc(O)cc3)C2=O)cc1 value_type=growth units_label=% value=68.3
query_smiles=CC(=O)c1ccc2c3c(n(C)c2c1)CCCC3 value_type=growth units_label=% value=76.5
query_smiles=O=C(CSc1nc2c(n1Nc1ccccc1)-c1ccccc1SC2)Nc1nc(-c2ccc(Cl)cc2)cs1 value_type=growth units_label=% value=78.4
query_smiles=COc1ccc2c(c1)nc(N)c1c3ccccc3cn21 value_type=growth units_label=% value=73.8
query_smiles=Cc1cc2cn3c4cccnc4[nH]c(=O)c3c2cc1C value_type=growth units_label=% value=18.4

---

# Test system: SK-MEL-5 melanoma
# EXPERIMENT NOTES: NCI-60 one-dose screen, 48 h
# SETUP CONDITIONS: 10 µM unless noted
Compounds without any hit were thinned out: in the full panel of roughly 83,000, 20% have a hit. Activity calls are given as the source filed them. How the source made its calls: active means growth percent below 10; inactive means the rest.
Outcome codes: YES = active, NO = inactive

compound=COc1ccc(-c2cc(Cc3cccs3)c(=O)n(Cn3ccc4ccccc43)n2)cc1 label=NO
compound="Cc1cc(C)c2c(c1)N1OC(C2)C[C@H]1/C=C/c1ccccc1 (stereo partly specified)" label=NO
compound=CCS(=O)(=O)OCCCl label=NO
compound=CCCCCCCCCCCCCCCCN=C(CC(=O)O)C(=O)O label=NO
compound=CCOc1ccccc1C(=O)OCC(=O)Nc1cccc(S(=O)(=O)N(C)C)c1 label=NO
compound=O=C(Nc1nc(-c2ccccc2)cs1)c1cc(O)c(O)c(O)c1 label=NO
compound=O=C(CCc1nnc(Cn2cncn2)o1)c1nc2ccccc2[nH]1 label=NO
compound=CC(c1cc(Cl)ccc1O)c1cc(Cl)ccc1O label=YES
compound=Cc1cc(NC(=O)c2ccc(N)cc2)ccc1N=Nc1ccc2c(O)c(N=Nc3ccc(Cl)c(S(=O)(=O)O)c3)c(S(=O)(=O)O)cc2c1 label=NO
compound=c1ccc(-n2nnnc2-c2cccc3ccccc23)cc1 label=NO
compound=Cc1nc2c(O)cccc2cc1CO label=NO

---

# Test system: OVCAR-3 ovarian
# EXPERIMENT NOTES: NCI-60 one-dose screen, 48 h (100 = growth as untreated, 0 = no growth, -100 = all killed)
# SETUP CONDITIONS: 10 µM unless noted
The panel holds about 83,000 compounds, 20% with a hit somewhere; the sample as a whole holds those more often.
Collected growth values appear next to each entry.
VALUE TYPE: growth (%)

molecule=CC1=NN(c2ccccc2Cl)C(=O)/C1=C\c1cn(S(=O)(=O)c2ccc(C)cc2)c2ccccc12 value_type=growth value=110
molecule=O=C1OC(c2ccc(-c3ccccc3)cc2)=C/C1=C/c1cccs1 value_type=growth value=89.2
molecule="O=C(O)c1ccccc1C(=O)OC1CCCC2CCCC21 (stereo unspecified)" value_type=growth value=122
molecule=CN(C)c1ccc2[nH]c3c(C(N)=O)cc(=O)c(=O)c=3oc2c1 value_type=growth value=-9.97
molecule=O=[P@@]1(c2ccccc2)O[C@H](COCc2ccccc2)[C@@H](OCc2ccccc2)[C@H](OCc2ccccc2)[C@H]1NCc1ccccc1 value_type=growth value=18.6
molecule="O=c1[nH]c(=O)n(C2CC(O)C(CO)O2)cc1C(F)(F)F (stereo unspecified)" value_type=growth value=69.7
molecule=COc1ccc(-c2cncn2-c2ccc(-c3nc4cc(OC)c(OC)c(OC)c4s3)cc2)cc1N value_type=growth value=44.2
molecule=C[n+]1c2ccccc2c(Nc2ccc(N3CCCCC3)cc2)c2[nH]c3ccccc3c21 value_type=growth value=-95.7
molecule=CCC(C)(C)C(=O)O[C@H]1C[C@@H](C)C=C2C=C[C@H](C)[C@H](CC[C@@H]3C[C@@H](O)CC(=O)O3)[C@H]21 value_type=growth value=85.7
molecule=Cc1ccc(C(C)C)cc1NC(=O)Nc1ccc([N+](=O)[O-])cc1 value_type=growth value=-21.9
molecule=C[n+]1c2ccccc2c(NC2CCNCC2)c2[nH]c3ccccc3c21 value_type=growth value=-1.97
molecule=CN(C(=O)c1ccccc1)N(C)C(=O)c1ccccc1 value_type=growth value=127
molecule=CC1(C)OC(=O)C(=Cc2ccccc2Br)C(=O)O1 value_type=growth value=106
molecule="O=NC1CC=CCC1c1ccccc1 (stereo unspecified)" value_type=growth value=118
molecule=CN=C(NC)N/N=C(C)\C=N\NC(=NC)NC value_type=growth value=107
molecule="CN(CCOc1ccc(CC2SC(=O)NC2=O)cc1)c1ccccn1 (stereo unspecified)" value_type=growth value=110
molecule=COc1ccccc1[C@H]1c2[nH]c3ccccc3c2C[C@H]2C(=O)N(CCCCCCC(=O)NO)CC(=O)N12 value_type=growth value=48.2
molecule=Clc1ccc([C@@H]2C[C@@H]3Cc4cc(Br)c5ccccc5c4N2O3)c(Cl)c1 value_type=growth value=41.6
molecule="CCC1=C(c2ccc(OC)cc2)C(C)Oc2cc(OC(C)=O)ccc21 (stereo unspecified)" value_type=growth value=86.9
molecule=Cn1cc(-c2csc(-c3cn(C)c4ncccc34)n2)c2cc(Br)cnc21 value_type=growth value=119
molecule=Cc1nn(-c2ccc(Cl)cc2)c2nc3c(nc12)c(=O)oc1ccccc13 value_type=growth value=118
molecule=Cn1cnc([N+](=O)[O-])c1S(=O)(=O)Oc1ccc(Cl)cc1 value_type=growth value=-60.3
molecule=OCc1nnn(-c2ccccc2)c1CO value_type=growth value=117
molecule=O=C1CC(=O)N(c2ccccc2)O1 value_type=growth value=118
molecule=CC(C)(C)c1cc(O)c(O)c(C(C)(C)C)c1 value_type=growth value=20.9
molecule=CC(=O)NC1(C(=O)O)CCCC1 value_type=growth value=112
molecule=CCCCN(CCCC)CCCOC(=O)c1ccc(N)cc1 value_type=growth value=102
molecule=CC(=O)n1c2ccccc2c2ccccc21 value_type=growth value=114
molecule="Cc1cc(C)c2c(c1)N1OC(C2)C[C@H]1/C=C/c1ccccc1 (stereo partly specified)" value_type=growth value=116
molecule=Cc1c(NCc2nnc3n(Cc4ccccc4)c(=O)c4c5c(sc4n23)CCCC5)c(=O)n(-c2ccccc2)n1C value_type=growth value=87.3
molecule=O=C1/C(=C/c2ccc([N+](=O)[O-])o2)Oc2ccc(Br)cc21 value_type=growth value=-43.1
molecule="CO[C@H]1/C=C/O[C@@]2(C)Oc3c(C)c(O)c4c(O)c(c(/C=N/N5CCN(C)CC5)c(O)c4c3C2=O)NC(=O)/C(C)=C\\C=C\\C(C)[C@H](O)[C@@H](C)[C@@H](O)[C@@H](C)[C@@H](OC(C)=O)[C@@H]1C (stereo partly specified)" value_type=growth value=107
molecule=CCCCCCCCCCC[C@@H](C[C@H]1OC(=O)[C@H]1CCCCCC)OC(=O)[C@@H](CC(C)C)NC=O value_type=growth value=69
molecule="O=C1Nc2ccccc2C12Nc1cc(Cl)ccc1S2 (stereo unspecified)" value_type=growth value=76.3
molecule=CC(C)C/C(=N\NC(=O)c1ccncc1)c1cc(Cl)ccc1O value_type=growth value=11.1
molecule=ClC1=C(Cl)C(Cl)=C(Cl)C1=Cc1ccc(Cl)cc1 value_type=growth value=-96.8
molecule=O=C(Nc1ccc(C2=NCCCN2)cc1)Nc1ccc(C2=NCCCN2)cc1 value_type=growth value=99.4
molecule=Cc1c(C(N)=O)sc2c1C(=O)N(Cc1ccccc1)C1=NN=C(c3ccc(Cl)cc3)CN12 value_type=growth value=31.5
molecule=c1csc([C@@H]2C[C@@H]3Cc4ccc5ccccc5c4N2O3)c1 value_type=growth value=102
molecule=C[C@]12CC[C@@H]3c4ccc(O)c([N+](=O)[O-])c4CC[C@H]3[C@@H]1CC[C@@H]2NS(=O)(=O)c1cccc(Br)c1 value_type=growth value=28.5
molecule=CCOc1nc(-c2ccccc2)cc2c(O)c(C(=O)n3nc(C)cc3C)[nH]c(=O)c12 value_type=growth value=112

---

# System: HCT-15 colon
# EXPERIMENT NOTES: NCI-60 one-dose screen, 48 h
# SETUP CONDITIONS: 10 µM unless noted
The panel holds about 83,000 compounds, 20% with a hit somewhere; the sample as a whole holds those more often. Calls of active or inactive are those of the source. The calls were made as follows: active = growth percent below 10; inactive = the rest.
Labels: active, inactive

compound=CCC(C)(C)C(=O)O[C@H]1C[C@@H](C)C=C2C=C[C@H](C)[C@H](CC[C@@H]3C[C@@H](O)CC(=O)O3)[C@H]21 label=inactive
compound=CCCCCCCCCCCCCCCCN=C(CC(=O)O)C(=O)O label=inactive
compound=COc1ccc(-c2csc(NC(=O)c3cc(O)c(O)c(O)c3)n2)cc1 label=inactive
compound=CCOC(=O)c1ccccc1OC(=O)NNc1ccccc1 label=inactive
compound=c1cnc2n[nH]c(Nc3ncnc4c3sc3ncccc34)c2c1 label=inactive
compound="CO[C@H]1/C=C/O[C@@]2(C)Oc3c(C)c(O)c4c(O)c(c(/C=N/N5C(C)CN(Cc6ccccc6)CC5C)c(O)c4c3C2=O)NC(=O)/C(C)=C\\C=C\\[C@H](C)[C@H](O)[C@@H](C)[C@@H](O)[C@@H](C)[C@H](OC(C)=O)[C@@H]1C (stereo partly drawn)" label=inactive
compound=OCc1nnn(-c2ccccc2)c1CO label=inactive
compound=COc1ccc(Nc2nccc(N3CCN(c4c5ccc(Cl)cc5nc5ccc(OC)cc45)CC3)n2)cc1 label=inactive
compound=COc1ccc(-c2cc(C(=O)Nc3nc4cc(C)c(C)cc4s3)nc3cc(-c4ccccc4)nn23)cc1OC label=inactive
compound=O=C(Oc1ccc[nH]c1=O)c1cccc(Cl)c1 label=inactive
compound=COc1ccc2c(c1)/C(=C\c1c[nH]c3ccc(F)cc13)C(=O)N2 label=inactive
compound=O=C(N1CCC(CN=c2cc3n(-c4ccc(Cl)cc4)c4ccccc4nc-3cc2Nc2ccc(Cl)cc2)CC1)N1CC1 label=active
compound="CO[C@H]1CC(O[C@@H]2/C(C)=C/C[C@@H]3C[C@@H](C[C@]4(CC[C@H](C)[C@@H](C5CCCCC5)O4)O3)OC(=O)[C@@H]3C=C(C)/C(=N/O)[C@H]4OC/C(=C\\C=C\\[C@@H]2C)[C@]43O)O[C@@H](C)C1O (stereo partly drawn)" label=active
compound="COc1cc(/C=C2\\CCC/C(=C\\c3ccc(OCC4CO4)c(OC)c3)C2=O)ccc1OCC1CO1 (stereo not drawn)" label=inactive
compound=O=C(/C=C/c1ccc(Cl)cc1)c1ccccc1 label=inactive
compound=O=C(Nc1cccc(C(F)(F)F)c1)Nc1ccc(OCc2nnc(-c3ccc(Cl)cc3)o2)c(F)c1 label=inactive
compound=Cn1cc(-c2csc(-c3c[nH]c4ncccc34)n2)c2cc(Br)cnc21 label=inactive
compound="CCC(c1ccccc1)c1noc(CCN(CC)CC)n1 (stereo not drawn)" label=inactive

The reported numbers originate from PubChem BioAssay (NCI).
